Target: rabbit reticulocyte 20S proteasome, post-acid (PA) activity (Oryctolagus cuniculus, UniProt G1T235)
Sequence (G1T235 entry or part of it): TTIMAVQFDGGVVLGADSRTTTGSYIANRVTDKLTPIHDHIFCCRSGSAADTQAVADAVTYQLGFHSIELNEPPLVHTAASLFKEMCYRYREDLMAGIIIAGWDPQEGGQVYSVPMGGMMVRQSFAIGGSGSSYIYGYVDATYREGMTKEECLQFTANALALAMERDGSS
Result Type: IC50
In your response, put the unit directly after the numeric value.

> print(dat)
                                   compound  result.type  endpoint.result
1  Cc1noc(CN(C(=O)COc2ccc(Br)cc2)C(C)C)n1 [Compound 27]         IC50            76 µM

Please supply IC50 for each of the following items, keeping them in order.
1. CC(C)c1noc(CN(C(=O)COc2ccc(Br)cc2)C(C)C)n1 [Compound 28]
2. CC(C)N(Cc1nc(C(C)(C)C)no1)C(=O)COc1ccc(Br)cc1 [Compound 29]

[reply]
45 µM
28 µM

###

Biological target: human erythrocyte 20S proteasome, chymotrypsin-like (CT-L) activity (Homo sapiens)
Assignment: determine reported log10(IC50) for the given compounds.
For clarity, the numbers are log10 values of IC50 expressed in µM.

Please supply log10(IC50) for each of the following items, keeping them in order.
1. CC(C)N(Cc1nc(CN2CCOCC2)no1)C(=O)COc1ccc(Br)cc1
2. COc1ccc(-c2noc(CN(C(=O)COc3ccc(Br)cc3)C(C)C)n2)cc1OC

[reply]
[1.90, -1.43]

Please supply log10(IC50) for each of the following items, keeping them in order.
1. CC(C)N(Cc1nc(CCl)no1)C(=O)COc1ccc(Br)cc1
2. CC(C)N(Cc1nc(CN2CCCCC2)no1)C(=O)COc1ccc(Br)cc1
3. CCN(CC)Cc1noc(CN(C(=O)COc2ccc(Br)cc2)C(C)C)n1
4. CC(C)N(Cc1nc(-c2ccc(Oc3ccccc3)cc2)no1)C(=O)COc1ccc(Br)cc1

[reply]
1. 0.43
2. 1.57
3. 1.49
4. -0.21

###

Target: rabbit reticulocyte 20S proteasome, post-acid (PA) activity (Oryctolagus cuniculus)
Assay: 20S proteasome post-acid (PA) activity, Z-LLE-βNA hydrolysis
Type: biochemical
Set-up: key: NI: No Inhibition
Conditions: rabbit 20S proteasome, screened at 100 μM and 50 μM
Result Type: Inhibition of post-acid activity (NI)

> print(dat)
                                        smi  endpoint.result
1  CCc1ccc(OCC(=O)N(Cc2nc(-c3ccc(OC)cc3)no2)C(C)C)cc1               NI
2  COc1ccc(-c2noc(CN(C(=O)COc3cccc(C)c3)C(C)C)n2)cc1               NI
3  Cc1cccc(-c2noc(CN(C(=O)COc3ccc(C(C)C)cc3)C(C)C)n2)c1               NI
4  Cc1cccc(-c2noc(CN(C(=O)COc3ccc(Br)cc3)C(C)C)n2)c1               NI

###

Assignment: determine reported melting point for the given compounds.
Give bare numbers, in °C.

# annotated cases, reported melting point shown
> print(dat)
                                        smi  endpoint.result
1  CC(C)N(Cc1nc(-c2ccc(Oc3ccccc3)cc2)no1)C(=O)COc1ccc(Br)cc1               87
2  CCN(CC)Cc1noc(CN(C(=O)COc2ccc(Br)cc2)C(C)C)n1              168
3  CC(C)N(Cc1nc(-c2cccc3ccccc23)no1)C(=O)COc1ccc(Br)cc1              114

Please supply melting point for each of the following items, keeping them in order.
1. CC(C)N(Cc1nc(CN2CCCCC2)no1)C(=O)COc1ccc(Br)cc1
2. COc1ccc(-c2noc(CN(C(=O)COc3ccc(Br)cc3)C(C)C)n2)cc1OC
3. CC(C)N(Cc1nc(CN2CCOCC2)no1)C(=O)COc1ccc(Br)cc1

[reply]
[144, 135, 110]
